Target: human His-PIM1 [2-313] (Homo sapiens)
Construct: purified human His-PIM1 [2-313] enzyme; His (N); purchased University of Dundee, Scotland; host or cells: baculovirus system
Assay: PIM1 in-vitro mobility shift assay (Caliper LC3000, FL-Ahx-Bad phosphorylation)
Assay type: biochemical
Settings: 1.5 h; percent inhibition at 0.3 uM compound; read-out: PIM1 % I at 0.3 uM
Where a name gives a salt, the structure may show the parent alone.
readout-label: inhibition at 0.3 µM

>  <compound>
COc1cc(/C=C2\SC(=O)NC2=O)c(N2CC[C@@H](N(C)C)C2)cc1OC

>  <reported>
89.4%

$$$$

Field: inhibition at 0.3 µM. Fill in for each record below.
1. COc1cc(/C=C2\SC(=O)NC2=O)c(N2CCC(NCCN)C2)cc1OC (centres unmarked) [Example 111, hydrochloride]
2. NCCC(=O)N1CCN(c2ccc(C(F)(F)F)cc2/C=C2\SC(=O)NC2=O)CC1 [Example 93, hydrochloride]
3. N[C@@H]1CCN(c2c(Cl)cccc2/C=C2\SC(=O)NC2=O)C1 [Example 122G, hydrochloride]
4. Cn1ccc2cc(/C=C3\SC(=O)NC3=O)ccc21
5. CN(C)C1CCN(c2c(Cl)cc(C(F)(F)F)cc2/C=C2\SC(=O)NC2=O)CC1
6. COc1ccc(OCCN2CCOCC2)c(/C=C2\SC(=O)NC2=O)c1
7. NC[C@H]1CCN(c2c(Cl)cccc2/C=C2\SC(=O)NC2=O)C1 [Example 122B]

> 95%
> 95%
> 95%
59.6%
> 95%
62.1%
> 95%

Field: inhibition at 0.3 µM. Fill in for each record below.
1. COc1cc(/C=C2\SC(=O)NC2=O)c(N2CC[C@H](NCCCN)C2)cc1OC [Example 121, hydrochloride]
2. N[C@@H]1CCCN(c2c(/C=C3\SC(=O)NC3=O)cccc2-c2ccccc2)C1 [Example 122AI]
3. O=C1NC(=O)/C(=C/c2ccc[nH]c2=O)S1
4. NCCC(=O)N1CCCN(c2ccccc2/C=C2\SC(=O)NC2=O)CC1 [Example 105, hydrochloride]
5. COc1cc(/C=C2\SC(=O)NC2=O)c(N2CCC(CN)C2)cc1OC (centres unmarked) [Example 99, hydrochloride]

1: > 95%; 2: > 95%; 3: < 5%; 4: > 95%; 5: > 95%

Field: inhibition at 0.3 µM. Fill in for each record below.
1. O=C1NC(=O)/C(=C/c2cccc(Cl)c2N2CCC[C@@H](NCCC(F)(F)F)C2)S1
2. N[C@@H]1CCCN(c2c(/C=C3\SC(=O)NC3=O)cccc2OC2CCC2)C1 [Example 122AD, hydrochloride]
3. O=C1NC(=O)/C(=C/c2ccc3ncccc3c2)S1 [Example 77, trifluoroacetate]

> 95%
> 95%
51.2%

For COc1cc(/C=C2\SC(=O)NC2=O)c(N2CCC(NCCO)C2)cc1OC (centres unmarked) , what is its reported inhibition at 0.3 µM?
93%

---

Target: human His-PIM1 [2-313] (Homo sapiens, UniProt P11309)
Construct: purified human His-PIM1 [2-313] enzyme; His (N); purchased University of Dundee, Scotland; host or cells: baculovirus system
Sequence (P11309 2-313): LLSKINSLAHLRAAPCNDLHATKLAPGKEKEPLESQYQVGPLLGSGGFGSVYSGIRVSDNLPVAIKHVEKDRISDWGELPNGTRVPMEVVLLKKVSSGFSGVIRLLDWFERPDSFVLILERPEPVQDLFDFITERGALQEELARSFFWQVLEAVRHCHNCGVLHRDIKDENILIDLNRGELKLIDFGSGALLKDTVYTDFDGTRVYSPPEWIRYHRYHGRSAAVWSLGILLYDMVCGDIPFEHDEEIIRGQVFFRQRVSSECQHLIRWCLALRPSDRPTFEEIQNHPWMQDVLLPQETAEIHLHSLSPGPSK
Assay: PIM1 in-vitro mobility shift assay (Caliper LC3000, FL-Ahx-Bad phosphorylation)
Assay type: biochemical
Settings: 1.5 h; percent inhibition at 0.3 uM compound; read-out: PIM1 % I at 0.3 uM
Structures can show the parent of a compound that is named as a salt.
readout-label: inhibition at 0.3 µM

>  <compound>
CN(C)CCN(C)S(=O)(=O)c1ccc(-c2ccccc2/C=C2\SC(=O)NC2=O)cc1 [Example 84F]

>  <inhibition at 0.3 µM>
87.4%

$$$$

Field: inhibition at 0.3 µM. Fill in for each record below.
1. COc1cc(/C=C2\SC(=O)NC2=O)ccc1OCCN1CCCCC1
2. NCCCCC(=O)N1CCN(c2ccccc2/C=C2\SC(=O)NC2=O)CC1 [Example 108, hydrochloride]

["< 5%", "> 95%"]

For "O=C1NC(=O)/C(=C/c2cc(C(F)(F)F)cc(Cl)c2N2CCN(Cc3ccncc3)CC2)S1" , what is its reported inhibition at 0.3 µM?
29.8%

---

Biological target: human His-PIM1 [2-313] (Homo sapiens, UniProt P11309)
Construct: purified human His-PIM1 [2-313] enzyme; His (N); purchased University of Dundee, Scotland; host or cells: baculovirus system
Assay: PIM1 in-vitro mobility shift assay (Caliper LC3000, FL-Ahx-Bad phosphorylation)
Assay type: biochemical
Conditions: 1.5 h; percent inhibition at 0.3 uM compound; read-out: PIM1 % I at 0.3 uM
Description: PIM1 In-Vitro Mobility Shift Assay One may determine the activity of purified human His-PIM1 [2-313] enzyme in-vitro using a mobility shift assay on a Caliper LC3000 reader (Caliper, Mass.), which measures fluorescence of a phosphorylated and unphosphorylated FL-Ahx-Bad (FITC-(AHX)RSRHSSYPAGT-COOH, Primm 200606-00289, Primm Biotech, Mass.) and calculates a ratiometric value to determine percent turnover. […]
Where a name gives a salt, the structure may show the parent alone.
Please respond with reported inhibition at 0.3 µM for every item in the list.
Numbers only, in %.

>  <compound>
O=C1NC(=O)/C(=C/c2cc(C(F)(F)F)cc(Cl)c2N2CCN(C3CCCC3)CC2)S1 [Example 6, hydrochloride]

>  <reported>
79.4

$$$$
>  <compound>
O=C1NC(=O)/C(=C/c2ccccc2N2CCOCC2)S1 [Example 82]

>  <reported>
87.4

$$$$
>  <compound>
O=C(CN1CC[S+]([O-])CC1)N[C@H]1CCN(c2c(Cl)cccc2/C=C2\SC(=O)NC2=O)C1 [Example 142]

>  <reported>
86.1

$$$$
>  <compound>
CN(C)C1CCN(c2ccc([N+](=O)[O-])cc2/C=C2\SC(=O)NC2=O)C1 (stereo not shown) [Example 56, hydrochloride]

>  <reported>
90.7

$$$$
>  <compound>
N[C@@H]1CCCN(c2ccc(C(=O)O)cc2/C=C2\SC(=O)NC2=O)C1 [Example 122AG, hydrochloride]

>  <reported>
68.9

$$$$

Now examine the next entry.
For O=C(Cc1cccnc1)N[C@H]1CCN(c2c(Cl)cccc2/C=C2\SC(=O)NC2=O)C1 [Example 139] , what is its reported inhibition at 0.3 µM?
58.1

---

Target: human His-PIM2 [23-299] (Homo sapiens)
Construct: purified human His-PIM2 [23-299] enzyme; His (N); host or cells: E. coli
Assay: PIM2 in-vitro mobility shift assay (Caliper LC3000, FL-Ahx-Bad phosphorylation)
Type: biochemical
Details: 1.5 h; percent inhibition at 0.3 uM compound; read-out: PIM2 % I at 0.3 uM
Structures can show the parent of a compound that is named as a salt.
readout-label: inhibition at 0.3 µM (%)
Answers are plain numbers, in %.

Study these solved cases before continuing.
>  <molecule>
N[C@H]1CCCN(c2c(Cl)cc(C(F)(F)F)cc2/C=C2\SC(=O)NC2=O)C1 [Example 1, trifluoroacetate]

>  <inhibition at 0.3 µM [%]>
77.7

$$$$
>  <molecule>
CC(C)(C)OC(=O)N1CCN(c2ccccc2/C=C2\SC(=O)NC2=O)CC1 [Example 58]

>  <inhibition at 0.3 µM [%]>
7.1

$$$$
>  <molecule>
Cc1ccc(N2CC[C@H](N(C)C)C2)c(C=C2SC(=O)NC2=O)c1 [Example 84L]

>  <inhibition at 0.3 µM [%]>
55.2

$$$$
>  <molecule>
COc1cc(/C=C2\SC(=O)NC2=O)c(N2CCC(NCCO)C2)cc1OC (centres unmarked) [Example 132]

>  <inhibition at 0.3 µM [%]>
88.1

$$$$
>  <molecule>
Cn1ccc2ccc(/C=C3\SC(=O)NC3=O)cc21 [Example 75]

>  <inhibition at 0.3 µM [%]>
69.5

$$$$

Field: inhibition at 0.3 µM. Fill in for each record below.
1. NC(=O)COc1cccc(/C=C2\SC(=O)NC2=O)c1 [Example 84C]
2. COc1cc(/C=C2\SC(=O)NC2=O)c(N2CCCC2)cc1OC [Example 46]

1. 29.6
2. 15.7

Field: inhibition at 0.3 µM. Fill in for each record below.
1. COc1cc(/C=C2\SC(=O)NC2=O)c(-c2ccncc2)cc1OC [Example 66]
2. COc1cc(/C=C2\SC(=O)NC2=O)c(N2CC[C@@H](NCCCN)C2)cc1OC [Example 122A, hydrochloride]

[20.9, 55]

---

Please respond with reported inhibition at 0.3 µM for every item in the list.
Biological target: human His-PIM2 [23-299] (Homo sapiens, UniProt Q9P1W9)
Construct: purified human His-PIM2 [23-299] enzyme; His (N); host or cells: E. coli
Sequence (Q9P1W9 23-299): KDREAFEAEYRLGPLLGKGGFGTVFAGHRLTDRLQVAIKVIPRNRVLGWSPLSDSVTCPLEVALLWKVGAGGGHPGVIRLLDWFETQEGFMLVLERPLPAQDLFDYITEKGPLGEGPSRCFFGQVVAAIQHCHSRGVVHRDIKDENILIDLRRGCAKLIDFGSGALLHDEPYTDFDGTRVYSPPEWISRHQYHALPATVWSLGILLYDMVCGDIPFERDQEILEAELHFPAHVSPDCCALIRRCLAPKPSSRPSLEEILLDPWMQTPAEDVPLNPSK
Assay: PIM2 in-vitro mobility shift assay (Caliper LC3000, FL-Ahx-Bad phosphorylation)
Type: biochemical
Details: 1.5 h; percent inhibition at 0.3 uM compound; read-out: PIM2 % I at 0.3 uM
Numbers only, in %.

>  <smiles-repr>
O=C1NC(=O)/C(=C/c2cccc(Cl)c2N2CCC[C@@H](NCCC(F)(F)F)C2)S1

>  <target-or-system>
human His-PIM2 [23-299] (Homo sapiens, UniProt Q9P1W9)

>  <inhibition at 0.3 µM, %>
75.4

$$$$

Enter reported inhibition at 0.3 µM observed with human His-PIM2 [23-299] (Homo sapiens, UniProt Q9P1W9) for "CCCN(CCC)[C@@H]1CCCN(c2c(Cl)cccc2/C=C2\SC(=O)NC2=O)C1"
60.8
